Just for reference, paper PMC6372667 is where these values come from.

# experimental_details: in vitro
# Assay type: in vitro ADME
# particulars: PAMPA-BBB, classified by Pe, given in words

{"smiles_repr": "Cc1cc2c(c(C)c1CCO)C(=O)[C@H](C)C2", "BBB permeation class": "high BBB permeation"}
{"smiles_repr": "Cc1c(CCO)c(CO)cc2c1C(=O)[C@@H](C)C2", "BBB permeation class": "high BBB permeation"}
{"smiles_repr": "Cc1cc2c(c(C)c1CCO)C(=O)[C@](C)(CO)C2", "BBB permeation class": "high BBB permeation"}

---

# Tested on: C6 rat glial cells
# experimental_details: MTT cytotoxicity assay, C6
# Format: cell-based
# particulars: 24 h
Recorded LD50 Based on MTT Assay, C6 by entry

Example cases with answers are listed next.
{"molecule": "Cc1cc2c(c(C)c1CCO)C(=O)C(C)(C)C2O (stereo in doubt) [(3R)-Pterosin D, (3R)-pterosin D]", "parameter_measured": "LD50 Based on MTT Assay, C6", "reported_result": ">5,000 µM"}
{"molecule": "Cc1cc2c(c(C)c1CCO)C(=O)[C@](C)(CO)C2 [(2S)-Pterosin A, (2S)-pterosin A]", "parameter_measured": "LD50 Based on MTT Assay, C6", "reported_result": ">5,000 µM"}
{"molecule": "Cc1c(CCO[C@@H]2O[C@H](CO)[C@@H](O)[C@H](O)[C@H]2O)c(CO)cc2c1C(=O)[C@@H](C)C2 [(2S)-Pteroside P, (2S)-pteroside P]", "parameter_measured": "LD50 Based on MTT Assay, C6", "reported_result": ">5,000 µM"}

With those in mind, consider the next molecule.
For reference, reported LD50 Based on MTT Assay, C6 for Cc1cc2c(c(C)c1CCO[C@@H]1O[C@H](CO)[C@@H](O)[C@H](O)[C@H]1O)C(=O)C(C)(C)C2 [Pteroside Z, pteroside Z] stands at 2,130 ± 62 µM
